Every entry's value here was drawn from patent US9926282B2.

# SYSTEM: ROCK1 (Homo sapiens (Human), UniProt Q13464)
# Sequence (Q13464 whole entry, species assumed): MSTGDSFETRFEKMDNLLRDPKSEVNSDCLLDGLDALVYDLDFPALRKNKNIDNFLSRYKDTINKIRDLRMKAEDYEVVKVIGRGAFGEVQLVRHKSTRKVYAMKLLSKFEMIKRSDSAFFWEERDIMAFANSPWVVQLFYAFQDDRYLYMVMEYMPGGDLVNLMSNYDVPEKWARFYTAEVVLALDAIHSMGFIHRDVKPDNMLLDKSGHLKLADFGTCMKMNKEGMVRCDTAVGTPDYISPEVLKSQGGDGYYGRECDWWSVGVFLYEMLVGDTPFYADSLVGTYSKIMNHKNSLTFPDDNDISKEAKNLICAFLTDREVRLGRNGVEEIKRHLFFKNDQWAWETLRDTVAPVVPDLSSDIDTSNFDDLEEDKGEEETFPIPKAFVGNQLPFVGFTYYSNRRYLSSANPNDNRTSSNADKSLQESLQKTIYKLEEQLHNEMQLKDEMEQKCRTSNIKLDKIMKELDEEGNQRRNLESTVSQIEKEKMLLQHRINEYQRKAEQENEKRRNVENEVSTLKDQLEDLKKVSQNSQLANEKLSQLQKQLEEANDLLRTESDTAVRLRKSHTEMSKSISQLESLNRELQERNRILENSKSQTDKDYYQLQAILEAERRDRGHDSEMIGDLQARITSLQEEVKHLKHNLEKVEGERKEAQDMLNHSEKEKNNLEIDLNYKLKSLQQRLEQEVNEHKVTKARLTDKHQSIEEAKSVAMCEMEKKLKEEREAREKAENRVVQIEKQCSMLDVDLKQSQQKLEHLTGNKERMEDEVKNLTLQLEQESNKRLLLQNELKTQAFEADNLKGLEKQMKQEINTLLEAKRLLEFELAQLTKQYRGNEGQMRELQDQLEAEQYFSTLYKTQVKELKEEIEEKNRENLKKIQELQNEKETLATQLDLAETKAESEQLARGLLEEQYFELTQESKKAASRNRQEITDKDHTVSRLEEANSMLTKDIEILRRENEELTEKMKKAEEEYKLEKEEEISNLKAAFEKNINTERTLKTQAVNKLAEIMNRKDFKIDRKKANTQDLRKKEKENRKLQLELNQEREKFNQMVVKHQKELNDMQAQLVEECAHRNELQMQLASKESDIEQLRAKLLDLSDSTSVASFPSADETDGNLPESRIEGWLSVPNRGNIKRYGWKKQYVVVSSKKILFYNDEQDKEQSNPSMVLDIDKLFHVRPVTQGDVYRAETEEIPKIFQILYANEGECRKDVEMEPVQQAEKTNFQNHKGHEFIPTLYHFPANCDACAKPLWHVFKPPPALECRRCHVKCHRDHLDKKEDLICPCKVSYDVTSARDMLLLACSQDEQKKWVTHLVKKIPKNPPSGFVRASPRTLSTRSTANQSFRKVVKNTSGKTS
# ASSAY_NAME: ROCK assay (LABCHIP peptide phosphorylation), ROCK1
# Assay type: biochemical
# CONDITION_SUMMARY: 5 μM ATP, 1.5 μM peptide substrate; read-out: ROCK1 IC50
pIC50: −log10 of the molar value.
QUANTITY_NAME: pIC50

pIC50 in this record for O=C(Nc1ccc(-c2n[nH]c(=O)c3ccccc23)cc1)c1cnn2cc(OCCN3CCOCC3)ccc12 [Example 188] : 7.00 to 10.00

pIC50 in this record for CC1(Cn2nc(C(=O)Nc3ccc(-c4n[nH]c(=O)c5ccccc45)cc3)c3ccccc32)COC1 [Example 145] : 7.00 to 10.00

pIC50 in this record for CC(C)(C)n1cc(C(=O)Nc2ccc(-c3n[nH]c(=O)c4ccccc34)cc2)cn1 [Example 381] : 7.00 to 10.00

pIC50 in this record for O=C(Cc1ccc(-c2n[nH]c(=O)c3ccccc23)cc1)N[C@H]1CCc2ccccc21 [Example 82] : 4.30 to 6.00

pIC50 in this record for Cn1c(C(=O)Nc2ccc(-c3n[nH]c(=O)c4ccccc34)cc2)cc2ccccc21 [Example 90] : 6.00 to 7.00

pIC50 in this record for O=C(Nc1ccc(-c2n[nH]c(=O)c3ccccc23)cc1)c1cnn(-c2ccccc2)c1 [Example 191] : 7.00 to 10.00

====

# SYSTEM: ROCK1 (Homo sapiens (Human))
# ASSAY_NAME: ROCK assay (LABCHIP peptide phosphorylation), ROCK1
# Assay type: biochemical
# CONDITION_SUMMARY: 5 μM ATP, 1.5 μM peptide substrate; read-out: ROCK1 IC50
QUANTITY_NAME: IC50

IC50 in this record for CCn1ccc(C(=O)Nc2ccc(-c3n[nH]c(=O)c4ccccc34)cc2)n1 : 101 to 1000 nM

IC50 in this record for O=C(Nc1ccc(-c2n[nH]c(=O)c3ccccc23)cc1)c1cn2c(n1)CCCC2 : 101 to 1000 nM

IC50 in this record for CN(C)c1ccc(C(=O)Nc2ccc3c(c2)N(C(=O)Cc2ccc(-c4n[nH]c(=O)c5ccccc45)cc2)CC3)cc1 : 0.1 to 100 nM

IC50 in this record for CC1(C)OB(c2ccc(CC(=O)N3Cc4ccccc4C3)c(F)c2)OC1(C)C : 1000 to 50000 nM

====

Answer each item with its documented IC50.
# SYSTEM: ROCK2 (Homo sapiens (Human), UniProt O75116)
# Sequence (O75116 whole entry, species assumed): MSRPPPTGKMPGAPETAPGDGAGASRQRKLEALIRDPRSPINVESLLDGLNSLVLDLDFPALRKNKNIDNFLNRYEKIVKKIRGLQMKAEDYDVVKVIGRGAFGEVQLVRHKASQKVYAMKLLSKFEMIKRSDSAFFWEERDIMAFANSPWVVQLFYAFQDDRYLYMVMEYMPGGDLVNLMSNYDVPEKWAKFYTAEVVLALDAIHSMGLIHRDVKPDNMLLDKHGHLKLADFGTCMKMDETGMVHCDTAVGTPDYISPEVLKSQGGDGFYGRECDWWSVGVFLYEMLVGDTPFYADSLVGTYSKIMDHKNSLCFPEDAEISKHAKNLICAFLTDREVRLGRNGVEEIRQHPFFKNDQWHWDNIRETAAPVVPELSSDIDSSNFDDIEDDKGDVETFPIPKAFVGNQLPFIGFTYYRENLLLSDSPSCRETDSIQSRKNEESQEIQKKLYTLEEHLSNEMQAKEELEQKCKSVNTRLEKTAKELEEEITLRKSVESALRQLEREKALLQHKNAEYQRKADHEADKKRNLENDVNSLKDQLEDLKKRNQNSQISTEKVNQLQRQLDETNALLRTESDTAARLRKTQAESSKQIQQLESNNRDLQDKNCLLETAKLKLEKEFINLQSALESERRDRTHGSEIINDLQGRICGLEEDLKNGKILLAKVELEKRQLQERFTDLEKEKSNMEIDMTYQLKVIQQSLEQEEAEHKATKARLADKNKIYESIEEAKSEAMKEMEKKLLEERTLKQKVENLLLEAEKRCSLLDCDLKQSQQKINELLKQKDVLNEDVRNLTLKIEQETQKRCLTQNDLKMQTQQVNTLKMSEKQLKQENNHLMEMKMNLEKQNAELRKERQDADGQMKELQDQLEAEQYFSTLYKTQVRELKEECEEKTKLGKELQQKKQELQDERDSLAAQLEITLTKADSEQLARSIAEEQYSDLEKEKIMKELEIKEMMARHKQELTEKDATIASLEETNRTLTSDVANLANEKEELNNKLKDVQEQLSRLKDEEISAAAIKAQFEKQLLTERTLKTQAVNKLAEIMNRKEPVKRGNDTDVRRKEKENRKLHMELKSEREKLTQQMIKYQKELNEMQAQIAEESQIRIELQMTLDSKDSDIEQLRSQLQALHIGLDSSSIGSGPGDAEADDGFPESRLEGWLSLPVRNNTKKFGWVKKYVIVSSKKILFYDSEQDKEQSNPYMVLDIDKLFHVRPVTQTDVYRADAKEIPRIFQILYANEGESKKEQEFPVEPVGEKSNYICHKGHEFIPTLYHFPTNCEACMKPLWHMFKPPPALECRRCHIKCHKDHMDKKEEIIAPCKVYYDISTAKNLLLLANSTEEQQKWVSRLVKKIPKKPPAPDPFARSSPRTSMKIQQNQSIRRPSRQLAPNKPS
# ASSAY_NAME: ROCK assay (LABCHIP peptide phosphorylation), ROCK2
# Assay type: biochemical
# CONDITION_SUMMARY: 5 μM ATP, 1.5 μM peptide substrate
Structures can show the parent of a compound that is named as a salt.

IC50 in this record for COC(=O)CCn1nc(C(=O)Nc2ccc(-c3n[nH]c(=O)c4ccccc34)cc2)c2ccccc21 : 0.1 to 100 nM

IC50 in this record for CC(C)(O)Cn1nc(C(=O)Nc2ccc(-c3n[nH]c(=O)c4ccccc34)cc2)c2ccc(F)cc21 : 0.1 to 100 nM

IC50 in this record for Cc1cc(NC(=O)c2cnn3cc(OCCN4CCCC4)ccc23)ccc1-c1n[nH]c(=O)c2ccccc12 : 0.1 to 100 nM

IC50 in this record for O=C(Nc1ccc(-c2n[nH]c(=O)c3ccccc23)cc1)c1nc2ccccc2s1 : 0.1 to 100 nM

IC50 in this record for O=C(Cc1ccc(-c2n[nH]c(=O)c3ccccc23)cc1)N1CCN(c2ncccn2)CC1 : 1000 to 50000 nM

IC50 in this record for CN1CCN(Cc2ccc3c(c2)CN(C(=O)Cc2ccc(-c4n[nH]c(=O)c5ccccc45)cc2)C3)CC1 : 0.1 to 100 nM

IC50 in this record for O=C(Cc1ccc(-c2n[nH]c(=O)c3ccccc23)c(F)c1)N1CCc2ccccc21 : 0.1 to 100 nM

IC50 in this record for O=C(Nc1ccc(-c2n[nH]c(=O)c3ccccc23)cc1)c1nn(CCCO)c2ccccc12 : 0.1 to 100 nM

IC50 in this record for COc1ccc(N2CCN(C(=O)Cc3ccc(-c4n[nH]c(=O)c5ccccc45)cc3)CC2)cc1 : 1000 to 50000 nM

IC50 in this record for O=C(Nc1ccc(-c2n[nH]c(=O)c3ccccc23)c(CO)c1)c1nn(CC2CCOC2)c2ccc(F)cc12 (stereo not shown) : 0.1 to 100 nM

IC50 in this record for Cn1nc(C(F)(F)F)cc1C(=O)Nc1ccc(-c2n[nH]c(=O)c3ccccc23)cc1 : 0.1 to 100 nM

IC50 in this record for COc1ccc(C#N)c(-n2cnc(C(=O)Nc3ccc(-c4n[nH]c(=O)c5ccccc45)cc3)n2)c1 : 0.1 to 100 nM

IC50 in this record for Cc1cc(NC(=O)c2nn(CC3CNC3)c3ccccc23)ccc1-c1n[nH]c(=O)c2ccccc12 [Example 326, TFA] : 101 to 1000 nM

IC50 in this record for CN(C)c1cccc(C(=O)Nc2ccc(-c3c[nH]c(=O)c4ccccc34)cc2)c1 : 0.1 to 100 nM

IC50 in this record for O=C(Nc1ccc(-c2n[nH]c(=O)c3ccccc23)cc1)c1cnn(CCC(F)(F)F)c1 : 0.1 to 100 nM

IC50 in this record for O=C(Oc1ccc(-c2n[nH]c(=O)c3ccccc23)cc1)N1Cc2ccccc2C1 : 0.1 to 100 nM

IC50 in this record for O=C(O)COc1ccc2c(c1)N(C(=O)Cc1ccc(-c3n[nH]c(=O)c4ccccc34)cc1)CC2 : 0.1 to 100 nM

IC50 in this record for CC(C)(O)Cn1nc(C(=O)Nc2ccc(-c3n[nH]c(=O)c4ccccc34)cc2)c2ccccc21 : 0.1 to 100 nM

IC50 in this record for Cc1cc(NC(=O)c2c3ccccc3nn2CC2COC2)ccc1-c1n[nH]c(=O)c2ccccc12 : 1000 to 50000 nM

IC50 in this record for CC(C)(O)CNC(=O)CCn1nc(C(=O)Nc2ccc(-c3n[nH]c(=O)c4ccccc34)cc2)c2ccccc21 : 0.1 to 100 nM

IC50 in this record for CN1CCN(C(=O)c2ccc3c(c2)N(C(=O)Cc2ccc(-c4n[nH]c(=O)c5ccccc45)cc2)CC3)CC1 : 0.1 to 100 nM

IC50 in this record for O=C(Nc1ccc(-c2n[nH]c(=O)c3ccccc23)cc1)C1CCN(Cc2ccccc2)C1 (stereo not shown) : 1000 to 50000 nM
